For each entry below, report its ED50 value.
system: Mus musculus; assay: Convulsant effects in mice treated with PTZ (40 mg/kg) dose; assay type: functional

Query: # query: ED50 of entry CC(C)(C)C(=O)Oc1ccc2c(c1)[nH]c1c3c4ccccc4nc-3c[nH]c12
Response: 17.5 mg/kg

Query: # query: ED50 of entry Fc1ccc2c(c1)[nH]c1c3c4ccccc4nc-3c[nH]c12
Response: > 30 mg/kg

Query: # query: ED50 of entry Brc1ccc2c(c1)[nH]c1c3c4ccccc4nc-3c[nH]c12
Response: > 40 mg/kg

Query: # query: ED50 of entry Cc1ccc2c(c1)[nH]c1c3c4ccccc4nc-3c[nH]c12
Response: > 40 mg/kg

Query: # query: ED50 of entry COc1ccc2c(c1)[nH]c1c3c4ccccc4nc-3c[nH]c12.Cl
Response: 7 mg/kg

Query: # query: ED50 of entry Oc1ccc2[nH]c3c4c5ccccc5nc-4c[nH]c3c2c1
Response: > 40 mg/kg

Query: # query: ED50 of entry Clc1ccc2c(c1)[nH]c1c2ncc2[nH]c3ccccc3c21
Response: > 30 mg/kg

Query: # query: ED50 of entry Fc1ccc2[nH]c3c4c5ccccc5nc-4c[nH]c3c2c1
Response: > 30 mg/kg

Query: # query: ED50 of entry Oc1ccc2c(c1)[nH]c1c3c4ccccc4nc-3c[nH]c12
Response: > 40 mg/kg

----------
molecular target: GABA-A receptor; anion channel; assay: In vitro potency measured against [3H]diazepam at the benzodiazepine receptor in rat
measured_attribute: pIC50
Bear in mind: pIC50 is minus log10 of a mol/L concentration; give just that figure.

Query: # query: pIC50 of entry Brc1cccc2c1[nH]c1c3c4ccccc4nc-3c[nH]c12
Response: 7.55

Query: # query: pIC50 of entry O=[N+]([O-])c1ccc2[nH]c3c[nH]c4c5ccc(Cl)cc5nc-4c3c2c1
Response: 6.90

Query: # query: pIC50 of entry Cc1cccc2c1[nH]c1c3c4ccccc4nc-3c[nH]c12
Response: 7.08

Query: # query: pIC50 of entry Oc1cccc2[nH]c3c4c5ccccc5nc-4c[nH]c3c12
Response: 6.24

Query: # query: pIC50 of entry O=S(=O)(O)c1ccc2[nH]c3c(ncc4[nH]c5ccc(S(=O)(=O)O)cc5c43)c2c1
Response: 5.30

Query: # query: pIC50 of entry Oc1ccc2c(c1)[nH]c1c3c4ccccc4nc-3c[nH]c12
Response: 8.22

Query: # query: pIC50 of entry O=[N+]([O-])c1ccc2[nH]c3c[nH]c4c5ccccc5nc-4c3c2c1
Response: 8.40

Query: # query: pIC50 of entry Clc1ccc2[nH]c3c[nH]c4c5cccc(Cl)c5nc-4c3c2c1
Response: 6.51

Query: # query: pIC50 of entry Cc1ccc2[nH]c3c4c5ccccc5nc-4c[nH]c3c2c1
Response: 6.65

Query: # query: pIC50 of entry Cn1c2ccccc2c2c3nc4ccccc4c-3[nH]cc21
Response: 5.94

Query: # query: pIC50 of entry Nc1ccc2[nH]c3c[nH]c4c5ccccc5nc-4c3c2c1
Response: 7.36

Query: # query: pIC50 of entry O=[N+]([O-])c1ccc2[nH]c3c[nH]c4c5cc(Cl)ccc5nc-4c3c2c1
Response: 5.92

Query: # query: pIC50 of entry CCc1nc2c3ccccc3[nH]c2c2c1[nH]c1ccccc12
Response: 6.60

Query: # query: pIC50 of entry Cn1c2ccccc2c2[nH]cc3nc4ccccc4c-3c21
Response: 6.80

Query: # query: pIC50 of entry Brc1ccc2[nH]c3cnc4c5ccccc5[nH]c4c3c2c1
Response: 8.22

Query: # query: pIC50 of entry COc1cccc2[nH]c3c4c5ccccc5nc-4c[nH]c3c12
Response: 6.60

Query: # query: pIC50 of entry Brc1ccc2c(c1)[nH]c1c3c4ccccc4nc-3c[nH]c12
Response: 7.72

Query: # query: pIC50 of entry Oc1ccc2[nH]c3c4c5ccccc5nc-4c[nH]c3c2c1
Response: 6.94

Query: # query: pIC50 of entry Brc1ccc2[nH]c3c4c5ccccc5nc-4c[nH]c3c2c1
Response: 6.12

Query: # query: pIC50 of entry COc1ccc2c(c1)[nH]c1c3c4ccccc4nc-3c[nH]c12.Cl
Response: 8.10

Query: # query: pIC50 of entry Fc1ccc2[nH]c3c4c5ccccc5nc-4c[nH]c3c2c1
Response: 8.22

Query: # query: pIC50 of entry Nc1ccc2[nH]c3c[nH]c4c5ccc(Cl)cc5nc-4c3c2c1
Response: 7.01

Query: # query: pIC50 of entry c1ccc(COc2ccc3[nH]c4c5c6ccccc6nc-5c[nH]c4c3c2)cc1
Response: 5.80

Query: # query: pIC50 of entry Cc1ccc2c(c1)[nH]c1c3c4ccccc4nc-3c[nH]c12
Response: 8.10
